- Test system: SF-295 CNS
- method.summary: NCI tumour cell line growth inhibition, 48 h
Assign TGI to each entry below.

[ask] I am curious: what TGI value has been reported for CC1CSC(=S)N1C(=O)N1C(=S)SCC1C (stereo unspecified) ?
[reply] 98.1 µM

[ask] What would you report for O=C(N/S(=N/S(=O)(=O)c1ccc(Br)cc1)C(Cl)(Cl)Cl)c1ccccc1 (stereo unspecified) ?
[reply] > 100 µM

[ask] Try CCCCCCCCc1ccc(OCCOCC[N+](C)(C)CC)cc1 (tested in a mixture with another compound) next.
[reply] 27 µM

[ask] Param item: COc1cc(-c2n[nH]nc2-c2ccc3c(c2)OCCO3)cc(OC)c1OC
[reply] 42.8 µM

[ask] Now consider CCOc1ccccc1NC(=O)CC1Sc2ccccc2NC1=O (stereo unspecified) and answer again.
[reply] > 100 µM

[ask] Queued: COc1ccc(=[O+]C)c2nssc1-2
[reply] > 100 µM

[ask] Continue with N#C/C(=C\c1cc(F)cc(F)c1)c1ccccn1
[reply] 60.2 µM

[ask] Follow-up entry: N#CCCN(CCCN(C(=O)N(c1ccccc1)c1ccccc1)c1ccccc1)C(=O)Nc1ccccc1
[reply] > 100 µM

[ask] Then what about the compound O=C(O)CNC(=O)C(CSC(=O)OCC1c2ccccc2-c2ccccc21)NC(=O)CCC(NC(=O)OCC1c2ccccc2-c2ccccc21)C(=O)O (stereo unspecified) ?
[reply] 30.5 µM

[ask] Note, next up: O=C(O)C1(c2ccccc2)CCCNCC1 (stereo unspecified)
[reply] > 100 µM

[ask] Can you check COc1cc(Br)cc2cc(C3=CSC4=NCCN34)c(=O)oc12 next?
[reply] 35.8 µM

[ask] Another compound to look at: O=C(NNC(=O)c1ccccc1O)c1ccccc1O
[reply] > 100 µM

[ask] Now consider O=C1NC(N/N=C/c2c[nH]c3ccccc23)=N/C1=C\c1cccs1 .
[reply] > 100 µM

[ask] Ok, now Cn1cc(-c2nc3c(F)cc4[nH]ncc4c3c3c2CCCC3)c(C(F)(F)F)n1
[reply] 69.8 µM

[ask] What about this compound? O=C1/C(=C/c2ccc(Cl)cc2)COc2ccc(O)cc21
[reply] 30 µM

[ask] What do you get for O=[N+]([O-])c1cccnc1NCC1(CO)CCCC1 ?
[reply] 56.2 µM

[ask] Now the compound COC(=O)c1c(OC(C)=O)ccc2c1c1c(OC(C)=O)c3ccccc3c(OC(C)=O)c1n2C
[reply] 70.7 µM

[ask] Thanks! And COc1ccc(C2N(c3ccc(F)c([N+](=O)[O-])c3)C(=O)N3C(c4ccc(OC)cc4)N(c4ccc(F)c([N+](=O)[O-])c4)C(=O)N23)cc1 (stereo unspecified) ?
[reply] > 100 µM

[ask] Also check O=c1[nH]cnc2c(COCCCO)c[nH]c12
[reply] > 100 µM

[ask] Moving on to COCN1C(=O)C2CC(/C=C/C(N)=O)=CN2C(=O)c2ccccc21 (stereo unspecified)
[reply] > 100 µM

[ask] Input COc1cccc(C2c3cc4c(cc3OC(NNc3ccccc3)C2C)OCO4)c1O (stereo unspecified)
[reply] 10.5 µM

* * *

- Test system: SR leukemia
- method.summary: NCI tumour cell line growth inhibition, 48 h
measure.name: TGI (µM)
Give the value in µM but do not write µM after it.

[ask] Return reported TGI; argument: COc1cc2oc3c(c(=O)c2c(O)c1/C=C/C(C)C)CCC(C)(C)Oc1cc(O)ccc1-3
[reply] 20

[ask] What do you have for Nc1cc2c([nH]c[n+]2CC#CCCl)c(SCC#CCCl)n1 ?
[reply] 16.4

[ask] Another compound: Cc1ccc(Nc2nc3nc[nH]c3c(=O)[nH]2)cc1CO
[reply] 37.7

[ask] Follow-up item: COc1ccc(N2C(=O)C3CC(c4ccc(C)cc4)c4c([nH]c5ccccc45)C3C2=O)cc1 (stereo not given)
[reply] 4.55

[ask] And what about the compound CS(=O)(=O)N1CC(CI)c2ccc(O)cc21 (stereo not given) ?
[reply] 7.33

* * *

- Test system: HT29 colon
- method.summary: NCI tumour cell line growth inhibition, 48 h
For each record, write down the corresponding TGI.

[ask] Report TGI for Cc1nnc(N)nc1C/C=C/C(Sc1ccc(Cl)cc1)c1ccccc1 (configuration not stated) tested on HT29 colon.
[reply] 25.6 µM

[ask] Try the compound CNc1ccc(C(=O)CC(O)CCC(C)C2OC(=O)CC(O)CC(=O)CC(O)CC(O)CC(O)CC(O)CC3(O)CC(O)C(C(=O)NCCN(C)C)C(CC(OC4OC(C)C(O)C(NC(=O)CN5CCN(CCO)CC5)C4O)/C=C/C=C/C=C/C=C\C=C/C=C/C=C/C2C)O3)cc1 (configuration not stated)
[reply] > 11.6 µM

[ask] O=C(O)CN1CCNCCNCC1 ?
[reply] > 100 µM

[ask] Ok, now O=C1Nc2ccccc2/C1=C/C(=N/c1nnc(-c2ccccc2)s1)c1ccccc1
[reply] 5.37 µM

[ask] Quick one: CCCCCCCCc1ccc(OCCOCC[N+](C)(C)CC)cc1 (tested in a mixture with another compound)
[reply] 13.5 µM

[ask] Try this compound too: O=[N+]([O-])O
[reply] > 100 µM

[ask] Quick one: CC(=O)OC1COC(N2CCc3ccccc32)C(OC(C)=O)C1OC(C)=O (configuration not stated)
[reply] > 100 µM

[ask] Repeat with O=C1/C(=C/c2ccc(Cl)cc2)COc2ccc(O)cc21
[reply] 6.61 µM

[ask] How about this compound: O=c1[nH]cnc2c(COCCCO)c[nH]c12
[reply] > 100 µM

[ask] Then this compound: C/C(=N\NC(=O)Nc1ccccc1Cl)c1ccc(O)cc1
[reply] > 100 µM

[ask] Field entry: O=C(CCl)Nc1ccc2c(c1)C(=O)c1ccccc1C2=O
[reply] 3.8 µM

[ask] Same again, this time with O=C(O)C1(c2ccccc2)CCCNCC1 (configuration not stated)
[reply] > 100 µM

[ask] Record: FC(F)(F)c1ccc(-c2cnc(Cl)nc2NC2CCCCCC2)cc1
[reply] > 100 µM

[ask] What do we get for N#CCCN(CCCN(C(=O)N(c1ccccc1)c1ccccc1)c1ccccc1)C(=O)Nc1ccccc1 ?
[reply] > 100 µM

[ask] Similarly, Cc1ccc(C2(c3ccc(C)cc3)SC(=C(C#N)C#N)c3ccccc32)cc1 ?
[reply] > 100 µM

[ask] Would you kindly repeat that for CCN(Cc1ccncc1)c1ccc(CO)c(Cl)c1 ?
[reply] > 100 µM

[ask] Please do the same for CCN1CCC(Oc2c(C#N)ncc3[nH]c4ncccc4c23)CC1 as well.
[reply] > 50 µM

[ask] Follow-up entry: CCOC(=O)COc1ccc(OCC(=O)OCC)c2c1C(=O)CCCC2=O
[reply] > 100 µM

[ask] What about this compound? OCc1nnn2c1CCC2
[reply] > 100 µM

[ask] Moving on to COc1cc(C=O)cc(/C=N/N=C/c2ccccc2O)c1O
[reply] > 100 µM

[ask] Param item: CN(C)c1ccc(/C=C/c2nc3ccccc3s2)cc1
[reply] > 100 µM

[ask] Similarly, CN(C)Cc1cc(/C(=C(\C#N)c2ccccc2)c2ccc(O)cc2)ccc1O ?
[reply] 44.8 µM

* * *

- Test system: PC-3 prostate
- method.summary: NCI tumour cell line growth inhibition, 48 h; in the data active means GI50 below about 0.43 µM; inactive means the rest
Output constraint: value belongs to y = active, n = inactive

[ask] Status in this test for COc1ccc(Nc2nccc(Nc3ccc4[nH]ncc4c3)n2)cc1 ?
[reply] n

[ask] C=C1C(=O)O[C@H]2[C@H]1CC/C(COC(=O)CCCCCCC(=O)OC/C1=C/CC[C@@]3(C)O[C@H]3[C@H]3OC(=O)C(=C)[C@@H]3CC1)=C\CC[C@@]1(C)O[C@@H]21 ?
[reply] n

[ask] Again, but for Nc1cc2c([nH]c[n+]2CC#CCCl)c(SCC#CCCl)n1
[reply] n

[ask] Then O=C(CCl)Nc1ccc2c(c1)C(=O)c1ccccc1C2=O ?
[reply] n

[ask] Now this one: O=C1/C(=C/c2ccc(Cl)cc2)COc2ccc(O)cc21
[reply] n

[ask] Another compound to look at: CCN(Cc1ccncc1)c1ccc(CO)c(Cl)c1
[reply] n

[ask] Now consider Cc1cc2c([nH]1)CSc1cc(S(=O)(=O)c3ccccc3)c(=O)[nH]c1-2 and answer again.
[reply] y

[ask] Lookup Cc1ccc(-c2c(C#N)[n+](=O)c3cc(Cl)c(Cl)cc3n2[O-])cc1
[reply] n

[ask] Also need Clc1ccc(CCC(Cn2ccnc2)Sc2c(Cl)cccc2Cl)cc1 (stereo not given) , thanks.
[reply] n

[ask] // same read-out, input: COc1cc(C2=NNC(c3ccc(N(C)C)cc3)C2)cc(OC)c1OC (stereo not given)
[reply] n

* * *

Please provide measured TGI for the entries that follow.
- Tested on: MALME-3M melanoma
- method.summary: NCI tumour cell line growth inhibition, 48 h

[ask] State the recorded TGI for this entry: COc1cc(C(=O)NO)ccc1O
[reply] > 100 µM

[ask] Try this molecule too: NS(=O)(=O)N(c1cc(C(F)(F)F)cc(C(F)(F)F)c1)C1CCN(Cc2ccc(F)cc2)CC1
[reply] 9.5 µM

[ask] Could you do the same for COC(=O)CCCC(=O)NC1=C(Nc2ccc(OC)cc2)C(=O)c2ccccc2C1=O , please?
[reply] 13.5 µM

[ask] Quick one: COc1cc(Nc2cnc3cc(N)ccc3n2)cc(OC)c1OC
[reply] > 100 µM

[ask] Again, but for CN(C)CCNC(=O)c1ccc(Cl)c2ccc(-c3ccccc3)nc12
[reply] 10.6 µM

[ask] Check Cc1[nH]c2nccn2c(=O)c1CCCl too.
[reply] 41.3 µM
